Reported IC50 values follow for various compounds
- system: RET WT (Homo sapiens)
- Construct: Recombinant proteins containing RET wt, RET (M918T) and RET (V804L) domains were purchased from Promega; purchased Promega V8061
- assay-name: ADP-Glo kinase assay, RET WT
- Assay type: biochemical
- experimental-parameters: recombinant RET wt, 120 min room temperature, read-out: Enzyme activity (IC50, nM) RET WT
Unit nM implied. Number only.

# structure-notation, measured-endpoint, readout-units, assay-value
measured = [
    ("O=C1Nc2ccccc2/C1=C1/Nc2ccccc2/C1=N\\OCCN1C[C@H]2C[C@@H]1CN2", "IC50", "nM", 0.423),
    ("O=C1Nc2ccc(Cl)cc2/C1=C1/Nc2ccccc2/C1=N\\OCCN1C[C@H]2C[C@@H]1CN2", "IC50", "nM", 1.72),
]

Read off the recorded IC50 for O=C1Nc2ccc(F)cc2/C1=C1/Nc2ccccc2/C1=N\OCC(=O)N1CC2(CNC2)C1
1.12

* * *

- system: RET WT (Homo sapiens, UniProt P07949)
- Construct: Recombinant proteins containing RET wt, RET (M918T) and RET (V804L) domains were purchased from Promega; purchased Promega V8061
- Sequence (P07949 724-1016 limits assumed): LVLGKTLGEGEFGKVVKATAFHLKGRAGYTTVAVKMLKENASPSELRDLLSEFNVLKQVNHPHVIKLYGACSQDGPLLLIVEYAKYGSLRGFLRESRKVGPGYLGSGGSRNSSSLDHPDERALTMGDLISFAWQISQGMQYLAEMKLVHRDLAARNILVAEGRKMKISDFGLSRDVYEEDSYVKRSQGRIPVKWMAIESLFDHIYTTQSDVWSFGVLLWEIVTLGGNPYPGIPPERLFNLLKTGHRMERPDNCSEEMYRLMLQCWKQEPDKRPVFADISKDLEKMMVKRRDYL
- assay-name: ADP-Glo kinase assay, RET WT
- Format: biochemical
- experimental-parameters: recombinant RET wt, 120 min room temperature, read-out: Enzyme activity (IC50, nM) RET WT
Grouping rule (IC50): low = under 0.8 nM, intermediate = from 0.8 nM up to 1 nM, high = 1 nM and over

Worked examples, 8 compounds total:
# compound, classification
rows = [
    ("O=C1Nc2ccccc2/C1=C1/Nc2ccccc2/C1=N\\OCCN1C[C@@H]2C[C@H]1CN2 [Example 5]", "high"),
    ("O=C1Nc2ccc(F)cc2/C1=C1/Nc2ccccc2/C1=N\\OCCN1C[C@H]2C[C@@H]1CN2 [Example 9]", "low"),
    ("O=C1Nc2ccccc2/C1=C1/Nc2ccccc2/C1=N\\OCCN[C@H]1[C@@H]2CNC[C@@H]21 [Example 2]", "intermediate"),
    ("O=C(CO/N=C1/C(=C2/C(=O)Nc3ccccc32)Nc2ccccc21)N[C@H]1[C@@H]2CNC[C@@H]21 [Example 16]", "intermediate"),
    ("O=C(CO/N=C1/C(=C2/C(=O)Nc3ccc(F)cc32)Nc2ccccc21)N[C@H]1[C@@H]2CNC[C@@H]21 [Example 19]", "high"),
    ("O=C1Nc2ccccc2/C1=C1/Nc2ccccc2/C1=N\\OCC(=O)N1C[C@H]2C[C@@H]1CN2 [Example 17]", "high"),
    ("N[C@@H]1[C@H]2CN(CCO/N=C3/C(=C4/C(=O)Nc5ccccc54)Nc4ccccc43)C[C@@H]12 [Example 3]", "intermediate"),
    ("O=C1Nc2ccc(F)cc2/C1=C1/Nc2ccccc2/C1=N\\OCCN1CC2(CNC2)C1 [Example 6]", "low"),
]

Place this compound in its band: N[C@@H]1[C@H]2CN(CCO/N=C3/C(=C4/C(=O)Nc5ccc(F)cc54)Nc4ccccc43)C[C@@H]12 [Example 8]
low

Which bin should I file O=C1Nc2ccc(F)cc2/C1=C1/Nc2ccccc2/C1=N\OCC(=O)N1C[C@H]2C[C@@H]1CN2 [Example 20] under?
high

Entry O=C1Nc2ccccc2/C1=C1/Nc2ccccc2/C1=N\OCCN1CC2(CNC2)C1 [Example 1] belongs to which category?
high

Each compound maps to one class by IC50. Which class for O=C1Nc2ccccc2/C1=C1/Nc2ccccc2/C1=N\OCC(=O)N1CC2(CNC2)C1 [Example 15] ?
low

Record O=C1Nc2ccc(F)cc2/C1=C1/Nc2ccccc2/C1=N\OCCN[C@H]1[C@@H]2CNC[C@@H]21 [Example 7] — which class?
high

Into which bin does this compound go? O=C1Nc2ccc(Br)cc2/C1=C1/Nc2ccccc2/C1=N\OCCN1C[C@H]2C[C@@H]1CN2 [Example 13]
high

* * *

- system: FLT3 WT (Homo sapiens)
- Construct: Recombinant proteins containing the FLT3 and FLT3 (D835Y) domains were purchased from Promega; purchased Promega V4064
- assay-name: ADP-Glo kinase assay, FLT3 WT
- Assay type: biochemical
- experimental-parameters: recombinant FLT3, ADP-Glo, 120 min room temperature; read-out: Enzyme activity (IC50, nM) FLT3 WT
Attribute: IC50

# structure-notation, system, IC50
measured = [
    ("O=C1Nc2ccc(F)cc2/C1=C1/Nc2ccccc2/C1=N\\OCC(=O)N1C[C@H]2C[C@@H]1CN2", "FLT3 WT (Homo sapiens)", "2.94 nM"),
    ("O=C(CO/N=C1/C(=C2/C(=O)Nc3ccc(F)cc32)Nc2ccccc21)N[C@H]1[C@@H]2CNC[C@@H]21", "FLT3 WT (Homo sapiens)", "3.13 nM"),
    ("O=C1Nc2ccc(F)cc2/C1=C1/Nc2ccccc2/C1=N\\OCCN1CC2(CNC2)C1", "FLT3 WT (Homo sapiens)", "2.44 nM"),
]

Find the measured IC50 of O=C1Nc2ccccc2/C1=C1/Nc2ccccc2/C1=N\OCCN[C@H]1[C@@H]2CNC[C@@H]21 and report it.
2.49 nM

* * *

- system: FLT3 D835Y (Homo sapiens, UniProt P36888, D835Y)
- Construct: Recombinant proteins containing the FLT3 and FLT3 (D835Y) domains were purchased from Promega; purchased Promega V4514
- assay-name: ADP-Glo kinase assay, FLT3 D835Y
- Type: biochemical
- experimental-parameters: recombinant FLT3 (D835Y), 120 min room temperature, read-out: Enzyme activity (IC50, nM) FLT3 D835Y
- Method: FLT3 activity inhibition was measured by ADP-Glo kinase assay (Promega, cat #V9101). ADP-Glo kinase analysis method is an emission ADP detect method which measures kinase activity by quantification of ADP amount produced during kinase reaction and provides uniform high-throughput screening method. Analysis performed in two steps. […] Second, Kinase Detection Reagent was added to convert ADP to ATP and newly synthesized ATP was measured by luciferase/luciferin reaction at the same time. […]
Recorded IC50 values for a group of compounds are listed next.
Dear colleague, please return just the value in nM, with no unit written.

Below, 3 compounds whose answers are already recorded.
# structure-notation, IC50 [nM]
rows = [
    ("O=C1Nc2ccc(F)cc2/C1=C1/Nc2ccccc2/C1=N\\OCCN1C[C@H]2C[C@@H]1CN2", 0.667),
    ("O=C1Nc2ccc(F)cc2/C1=C1/Nc2ccccc2/C1=N\\OCC(=O)N1C[C@H]2C[C@@H]1CN2", 0.271),
    ("O=C(CO/N=C1/C(=C2/C(=O)Nc3ccc(F)cc32)Nc2ccccc21)N[C@H]1[C@@H]2CNC[C@@H]21", 0.511),
]

For the compound O=C1Nc2ccccc2/C1=C1/Nc2ccccc2/C1=N\OCC(=O)N1C[C@H]2C[C@@H]1CN2 , give its measured IC50 value.
0.552

* * *

- system: FLT3 D835Y (Homo sapiens, UniProt P36888, D835Y)
- Construct: Recombinant proteins containing the FLT3 and FLT3 (D835Y) domains were purchased from Promega; purchased Promega V4514
- Sequence (P36888 610-943 D835Y limits assumed): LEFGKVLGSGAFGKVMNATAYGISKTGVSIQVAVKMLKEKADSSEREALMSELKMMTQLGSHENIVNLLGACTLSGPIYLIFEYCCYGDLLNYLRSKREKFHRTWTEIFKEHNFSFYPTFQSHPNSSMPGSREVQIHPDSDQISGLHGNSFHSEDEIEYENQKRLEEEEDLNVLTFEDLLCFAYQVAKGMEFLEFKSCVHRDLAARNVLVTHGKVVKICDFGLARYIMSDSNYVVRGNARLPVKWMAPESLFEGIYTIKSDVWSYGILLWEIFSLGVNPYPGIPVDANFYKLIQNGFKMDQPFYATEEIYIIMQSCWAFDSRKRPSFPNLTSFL
- assay-name: ADP-Glo kinase assay, FLT3 D835Y
- Assay type: biochemical
- experimental-parameters: recombinant FLT3 (D835Y), 120 min room temperature, read-out: Enzyme activity (IC50, nM) FLT3 D835Y
- Procedure: FLT3 activity inhibition was measured by ADP-Glo kinase assay (Promega, cat #V9101). ADP-Glo kinase analysis method is an emission ADP detect method which measures kinase activity by quantification of ADP amount produced during kinase reaction and provides uniform high-throughput screening method. Analysis performed in two steps. […] Second, Kinase Detection Reagent was added to convert ADP to ATP and newly synthesized ATP was measured by luciferase/luciferin reaction at the same time. […]
Measured IC50, listed per entry.
Note: unit nM is implicit; provide only the numeric part.

Look over these answered cases.
# structure-notation, IC50 / nM
measured = [
    ("O=C1Nc2ccccc2/C1=C1/Nc2ccccc2/C1=N\\OCCN1CC2(CNC2)C1", 0.329),
    ("O=C1Nc2ccc(F)cc2/C1=C1/Nc2ccccc2/C1=N\\OCC(=O)N1CC2(CNC2)C1", 0.306),
    ("O=C1Nc2ccccc2/C1=C1/Nc2ccccc2/C1=N\\OCC(=O)N1CC2(CNC2)C1", 0.798),
    ("O=C1Nc2ccc(F)cc2/C1=C1/Nc2ccccc2/C1=N\\OCCN1CC2(CNC2)C1", 0.488),
    ("N[C@@H]1[C@H]2CN(CCO/N=C3/C(=C4/C(=O)Nc5ccc(F)cc54)Nc4ccccc43)C[C@@H]12", 0.303),
]

For O=C1Nc2ccccc2/C1=C1/Nc2ccccc2/C1=N\OCCN[C@H]1[C@@H]2CNC[C@@H]21 , write its IC50.
0.524

Hello, please tell me recorded IC50 for this one: O=C1Nc2ccccc2/C1=C1/Nc2ccccc2/C1=N\OCCN1C[C@H]2C[C@@H]1CN2
0.216

Each recorded value in this set is attributed to patent US20240010635A1.
